# PROCEDURE_SUMMARY: Study on in vivo pharmacokinetics in mice
# Design: species or system mouse
# EXPERIMENTAL_SETUP: male, ICR, mouse, plasma, 10 mg/kg; oral administration in mice, 8 h; read-out: plasma concentration at 8 h
MEASURED_PARAMETER: concentration at 8 h (ng/mL)
Give bare numbers, in ng/mL.

Asked: Please look up its concentration at 8 h: `C[C@H]1CN(C2COC2)CCN1c1ccc(Nc2cc(-c3ccnc(-n4ccn5c6c(cc5c4=O)CC(C)(C)C6)c3CO)cn(C)c2=O)nc1`
Given back: 555

###

# PROCEDURE_SUMMARY: Stability test in liver microsomes (mouse)
# Format: in vitro ADME
# EXPERIMENTAL_SETUP: mouse liver microsomes, 1 μM compound, 30 min
Can you tell me MLM, percentage of remaining compound after 30 minutes of incubation for the items I'm about to list?

[
  {
    "SMILES_RECORD": "C[C@H]1CN(C2COC2)CCN1c1ccc(Nc2cc(-c3ccnc(-n4ccn5c6c(cc5c4=O)CC(F)(F)CC6)c3CO)cn(C)c2=O)nc1",
    "VAL": "97.1%"
  },
  {
    "SMILES_RECORD": "Cn1cc(-c2ccnc(-n3ccn4c5c(cc4c3=O)CC(C)(C)C5)c2CO)cc(Nc2ccc(N3CCN(C4COC4)CC3=O)cn2)c1=O",
    "VAL": "89.5%"
  }
]

Now look at this one.
Asked: Please look up its MLM, percentage of remaining compound after 30 minutes of incubation: `C[C@H]1CN(C2COC2)CCN1c1ccc(Nc2cc(-c3ccnc(-n4ncn5c6c(cc5c4=O)CC(C)(C)C6)c3CO)cn(C)c2=O)nc1`
Given back: ~100%

###

# ASSAYED_TARGET: phosphorylated BTK in Ramos cells (Homo sapiens (Human))
# Sequence (Q06187 whole entry): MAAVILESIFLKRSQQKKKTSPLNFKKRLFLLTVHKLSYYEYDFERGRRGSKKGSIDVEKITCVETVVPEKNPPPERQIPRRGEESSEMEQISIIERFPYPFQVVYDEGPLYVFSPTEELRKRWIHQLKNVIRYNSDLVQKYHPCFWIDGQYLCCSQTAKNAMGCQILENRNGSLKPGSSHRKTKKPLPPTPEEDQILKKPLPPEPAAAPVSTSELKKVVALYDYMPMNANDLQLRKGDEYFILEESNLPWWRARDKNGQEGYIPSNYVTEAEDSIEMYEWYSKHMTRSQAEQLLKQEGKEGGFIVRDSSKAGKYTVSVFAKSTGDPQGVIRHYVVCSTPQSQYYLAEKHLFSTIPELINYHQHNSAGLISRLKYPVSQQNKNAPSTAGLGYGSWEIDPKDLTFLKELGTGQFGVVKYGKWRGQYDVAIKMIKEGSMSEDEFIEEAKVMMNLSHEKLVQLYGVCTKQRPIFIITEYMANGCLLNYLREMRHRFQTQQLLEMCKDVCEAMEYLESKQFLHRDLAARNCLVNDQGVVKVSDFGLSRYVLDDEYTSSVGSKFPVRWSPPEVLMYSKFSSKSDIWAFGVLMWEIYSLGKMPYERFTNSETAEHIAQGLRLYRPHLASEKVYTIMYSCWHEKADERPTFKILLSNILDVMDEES
# PROCEDURE_SUMMARY: Determination of phosphorylated BTK in Ramos cells (BTK phospho-Y223 HTRF)
MEASURED_PARAMETER: pIC50
One number for each entry, as −log10 of the molar value.

// worked examples, pIC50 included
[
  {
    "COMPOUND": "COCCN1CCn2nc(Nc3cc(-c4ccnc(-n5ccn6c7c(cc6c5=O)CCC7)c4CO)cn(C)c3=O)cc2C1C (racemic)",
    "VAL": 7.80
  },
  {
    "COMPOUND": "CC1c2cc(Nc3cc(-c4ccnc(-n5ccn6c7c(cc6c5=O)CCC7)c4CO)cn(C)c3=O)nn2CCN1C1COC1 (racemic)",
    "VAL": 7.42
  }
]

Asked: Please look up its pIC50: Cn1cc(-c2ccnc(-n3ccn4c5c(cc4c3=O)CC(C)(C)C5)c2CO)cc(Nc2ccc(N3CCN4CCOCC4C3)cn2)c1=O (racemic)
Given back: 8.10

###

# PROCEDURE_SUMMARY: Stability test in liver microsomes (rat)
# Format: in vitro ADME
# EXPERIMENTAL_SETUP: rat liver microsomes, 1 μM compound, 30 min
# Description: Example 5 Stability Test in Liver Microsomes Both male CD-1 mouse pooled liver microsomes and male SD rat pooled liver microsomes were purchased from BioreclamationIVT Corporation, USA. Phenacetin, glucose-6-phosphate dehydrogenase (G-6-PDH) and nicotinamide adenine dinucleotide phosphate (NADP) were all purchased from Sigma-Aldrich Corporation, USA. Glucose-6-phosphate (G-6-P) was purchased from Shanghai Eybridge Chemical Technology Co., Ltd. […]
Can you tell me RLM, percentage of remaining compound after 30 minutes of incubation for the items I'm about to list?

// worked examples, RLM, percentage of remaining compound after 30 minutes of incubation included
[
  {
    "SMILES_RECORD": "C[C@H]1CN(C2COC2)CCN1c1ccc(Nc2cc(-c3ccnc(-n4ccn5c(cc6ccccc65)c4=O)c3CO)cn(C)c2=O)nc1",
    "VAL": "87.7%"
  },
  {
    "SMILES_RECORD": "C[C@@H]1CN(c2ccc(Nc3cc(-c4ccnc(-n5ccn6c7c(cc6c5=O)CCC7)c4CO)cn(C)c3=O)nc2)[C@@H](C)CN1C1COC1",
    "VAL": "98.9%"
  },
  {
    "SMILES_RECORD": "C[C@H]1CN(C2COC2)CCN1c1ccc(Nc2cc(-c3ccnc(-n4ccn5c6c(cc5c4=O)CC(C)(C)C6)c3CO)cn(C)c2=O)nc1",
    "VAL": "92.7%"
  },
  {
    "SMILES_RECORD": "C[C@H]1CN(C2COC2)CCN1c1ccc(Nc2cc(-c3ccnc(-n4ccn5c6c(cc5c4=O)CCC(F)(F)C6)c3CO)cn(C)c2=O)nc1",
    "VAL": "93.7%"
  },
  {
    "SMILES_RECORD": "C[C@H]1CN(C2COC2)CCN1c1ccc(Nc2cc(-c3ccnc(-n4ccn5c6c(cc5c4=O)CC(F)(F)CC6)c3CO)cn(C)c2=O)nc1",
    "VAL": "~100%"
  }
]

Now look at this one.
Asked: Please look up its RLM, percentage of remaining compound after 30 minutes of incubation: `C[C@H]1CN(C2COC2)CCN1c1ccc(Nc2cc(-c3ccnc(-n4cnn5c6c(cc5c4=O)CC(C)(C)C6)c3CO)cn(C)c2=O)nc1`
Given back: 89.6%
